ASSAY METHOD TEXT: Polymorph screening of solid state drug substances
Type: physicochemical
CONDITION INFO: MTBE, after stirring at 50 °C for 72 hours
OBSERVABLE: Dry method and appearance

structure=C=C1CC[C@@]2(O)C3Cc4ccc(OC(=O)CCCCCCCCCCCCCCCCCCC)c5c4[C@@]2(CCN3CC2CC2)[C@H]1O5 observable="Dry method and appearance" result="Evaporation/white powder"
structure=CCCCCCCCCCCCCCCCOC(=O)Oc1ccc2c3c1O[C@H]1C(=O)CC[C@@]4(O)C(C2)N(CC2CC2)CC[C@]314 observable="Dry method and appearance" result="Evaporation/white powder"
structure=CCCCCCCCCCCCOC(=O)Oc1ccc2c3c1O[C@H]1C(=O)CC[C@@]4(O)C(C2)N(CC2CC2)CC[C@]314 observable="Dry method and appearance" result="Evaporation/white powder"

---

ASSAY METHOD TEXT: Plasma stability, rat plasma (HPLC-MS)
Format: in vitro ADME
CONDITION INFO: 10 μM, 37° C., 480 min
OBSERVABLE: % remaining at time point in minutes, 480 min (%)

molecule="C=C1CC[C@@]2(O)C3Cc4ccc(OC(=O)OCCCCCCCCCC)c5c4[C@@]2(CCN3CC2CC2)[C@H]1O5 [Compound 18]" numeric_readout=0.1
molecule="C=C1CC[C@@]2(O)C3Cc4ccc(OC(=O)CCCCCCCCCCC)c5c4[C@@]2(CCN3CC2CC2)[C@H]1O5 [Compound 59, reference compound]" numeric_readout=0.2
molecule="CCCCCCCCCCCCCC(=O)Oc1ccc2c3c1O[C@H]1C(=O)CC[C@@]4(O)C(C2)N(CC2CC2)CC[C@]314 [Compound 57]" numeric_readout=1.2
molecule="C=C1CC[C@@]2(O)C3Cc4ccc(OCOC(=O)OCCCCCCCCCCCC)c5c4[C@@]2(CCN3CC2CC2)[C@H]1O5 [Compound 24]" numeric_readout=8.2
molecule="CCCCCCCCCCCCOC(=O)Oc1ccc2c3c1O[C@H]1C(=O)CC[C@@]4(O)C(C2)N(CC2CC2)CC[C@]314 [Compound 11]" numeric_readout=0.2

---

ASSAY METHOD TEXT: Polymorph screening of solid state drug substances
Type: physicochemical
CONDITION INFO: Isopropanol, dried solid
OBSERVABLE: XRPD results (Dried)

structure=C=C1CC[C@@]2(O)C3Cc4ccc(OC(=O)OCCCCCCCCCCCCCCCC)c5c4[C@@]2(CCN3CC2CC2)[C@H]1O5 result="Pattern A"
structure=CCCCCCCCCCCCOC(=O)Oc1ccc2c3c1O[C@H]1C(=O)CC[C@@]4(O)C(C2)N(CC2CC2)CC[C@]314 result="Pattern A"

---

ASSAY METHOD TEXT: Plasma stability, human plasma (HPLC-MS)
Assay type: in vitro ADME
CONDITION INFO: 2 μM, 37° C., 0 min
Documented % remaining at time point in minutes, 0 min across a set of molecules
OBSERVABLE: % remaining at time point in minutes, 0 min (%)

molecule="C=C1CC[C@@]2(O)C3Cc4ccc(OC(=O)CCCCCCC/C=C/CCCCCCCC)c5c4[C@@]2(CCN3CC2CC2)[C@H]1O5 [Compound 15]" numeric_readout=100
molecule="CCCCCCCCCCCCCCCC(=O)OC1CCCn2c1nc(C)c(CCN1CCC(c3noc4cc(F)ccc34)CC1)c2=O (centres unmarked) [Paliperidone palmitate, reference compound]" numeric_readout=100
molecule="C=C1CC[C@@]2(O)C3Cc4ccc(OCOC(=O)OCCCCCCCCCCCC)c5c4[C@@]2(CCN3CC2CC2)[C@H]1O5 [Compound 24]" numeric_readout=100
molecule="CCCCCCCCCCCC(=O)OCN1C(=O)CCc2ccc(OCCCCN3CCN(c4cccc(Cl)c4Cl)CC3)cc21 [Aripiprazole Lauroxil, reference compound]" numeric_readout=100
molecule="C=C1CC[C@@]2(O)C3Cc4ccc(OC(=O)OCCCCCCCCCCCC)c5c4[C@@]2(CCN3CC2CC2)[C@H]1O5 [Compound 6]" numeric_readout=100

Attribution: patent US10544154B2
